From: ChEMBL document CHEMBL1137892

Biological target: Metabotropic glutamate receptor 2 (Homo sapiens)
Assay: Level of potentiation of Metabotropic glutamate receptor 2 was determined by measuring the percentage activation of [35S]GTP-gamma-S, in the presence of 10 uM glutamate
Type: functional
ASSAY ENDPOINT: Potentiation

COc1ccccc1Oc1cccc(N(Cc2cncnc2)S(=O)(=O)CC(F)(F)F)c1
62%
c1ccc(Cc2cccc(NCc3cncnc3)c2)cc1
31%
O=S(=O)(CC(F)(F)F)N(Cc1cncnc1)c1cccc(Oc2ccccc2C(F)(F)F)c1
73%
FC(F)(F)Oc1cccc(NCc2cncnc2)c1
26%
O=S(=O)(CC(F)(F)F)N(Cc1cncnc1)c1cccc(Cc2ccccc2)c1
43%

Problem: Look up Potentiation with Metabotropic glutamate receptor 2 (Homo sapiens) for this compound: `O=S(=O)(CC(F)(F)F)N(Cc1cncnc1)c1ccc(Oc2ccccc2)cc1`
Result: 37%

Problem: Report Potentiation for `O=S(=O)(CC(F)(F)F)N(Cc1cncnc1)c1cccc(OC2CCCC2)c1` tested on Metabotropic glutamate receptor 2 (Homo sapiens).
Result: 60%

----------
Target: Metabotropic glutamate receptor 2 (Homo sapiens)
Assay: Binding potency against Metabotropic glutamate receptor 2 was determined by measuring the concentration required to activate 50% of [35S]GTP-gamma-S, in presence of 10 uM glutamate
Type: functional
ASSAY ENDPOINT: ED50 (µM)
State the answer as a number, implicitly in µM.

Example results:
CCCC(C)Oc1cccc(N(Cc2cncnc2)S(=O)(=O)CC(F)(F)F)c1 (stereo not given)
0.35
FC(F)(F)Oc1cccc(NCc2cnc3ccccc3c2)c1
5.2
COc1ccccc1Oc1cccc(N(Cc2cncnc2)S(=O)(=O)CC(F)(F)F)c1
0.76

Problem: Query: ED50; subject: `CC(C)(C)[Si](C)(C)OCc1cccc(N(Cc2cncnc2)S(=O)(=O)CC(F)(F)F)c1`
Result: 0.66

Problem: Recorded ED50 for CCCC(C)Oc1cccc(NCc2cnc3ccccc3c2)c1 (stereo not given) , please?
Result: 4.3

----------
Biological target: Metabotropic glutamate receptor 2 (Homo sapiens)
Experiment: Binding potency against Metabotropic glutamate receptor 2 was determined by measuring the concentration required to activate 50% of [35S]GTP-gamma-S, in presence of 10 uM glutamate
Format: functional
Label 1.0 when ED50 is strictly below 700 nM; at or above that, label 0.0.

O=S(=O)(CC(F)(F)F)N(Cc1cncnc1)c1cccc(Oc2ccccc2Br)c1
0.0
Cc1ccccc1Oc1cccc(N(Cc2cncnc2)S(=O)(=O)CC(F)(F)F)c1
1.0
O=S(=O)(CC(F)(F)F)N(Cc1cncnc1)c1cccc(Cc2ccccc2)c1
1.0

Please find the next molecule below.
Problem: Is ED50 strictly under 700 nM for the entry `O=S(=O)(CC(F)(F)F)N(Cc1cncnc1)c1cccc(Oc2ccccc2F)c1` ?
Result: 0.0

----------
Biological target: Metabotropic glutamate receptor 2 (Homo sapiens) (UniProt Q14416)
Sequence (Q14416 19-872 limits assumed): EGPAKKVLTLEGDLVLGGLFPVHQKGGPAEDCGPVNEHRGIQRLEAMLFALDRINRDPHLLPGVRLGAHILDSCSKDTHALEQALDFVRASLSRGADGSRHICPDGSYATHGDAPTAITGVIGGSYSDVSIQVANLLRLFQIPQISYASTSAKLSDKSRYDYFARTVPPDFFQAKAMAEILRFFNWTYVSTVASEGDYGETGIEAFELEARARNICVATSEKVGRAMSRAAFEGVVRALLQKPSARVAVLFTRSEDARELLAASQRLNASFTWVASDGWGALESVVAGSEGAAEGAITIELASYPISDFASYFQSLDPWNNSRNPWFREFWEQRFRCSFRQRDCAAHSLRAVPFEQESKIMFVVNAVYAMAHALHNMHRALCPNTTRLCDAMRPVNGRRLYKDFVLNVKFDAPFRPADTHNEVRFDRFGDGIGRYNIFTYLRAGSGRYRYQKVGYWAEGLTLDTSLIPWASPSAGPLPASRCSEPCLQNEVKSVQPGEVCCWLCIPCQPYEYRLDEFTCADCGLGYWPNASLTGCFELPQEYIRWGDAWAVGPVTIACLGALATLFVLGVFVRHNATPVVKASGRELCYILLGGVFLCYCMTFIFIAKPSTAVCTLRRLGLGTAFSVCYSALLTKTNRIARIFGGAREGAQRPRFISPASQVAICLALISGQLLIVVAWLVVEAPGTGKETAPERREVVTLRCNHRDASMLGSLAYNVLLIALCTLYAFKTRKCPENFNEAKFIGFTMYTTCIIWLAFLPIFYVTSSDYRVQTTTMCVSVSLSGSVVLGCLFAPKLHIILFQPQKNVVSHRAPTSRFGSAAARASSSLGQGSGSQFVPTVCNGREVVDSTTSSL
Assay: Binding potency against Metabotropic glutamate receptor 2 was determined by measuring the concentration required to activate 50% of [35S]GTP-gamma-S, in presence of 10 uM glutamate
Type: functional
# fulfilled = ED50 below 800 nM (exclusive); not fulfilled = ED50 at/above 800 nM

Here's what some known entries look like.
O=S(=O)(CC(F)(F)F)N(Cc1cncnc1)c1cccc(Oc2ccccc2C(F)(F)F)c1
not fulfilled
O=S(=O)(CC(F)(F)F)N(Cc1cncnc1)c1cccc(OC2CCCC2)c1
not fulfilled
COc1ccccc1Oc1ccc(N(Cc2cccnc2)S(=O)(=O)CC(F)(F)F)cc1
not fulfilled

Problem: Quick check: ED50 of `O=S(=O)(CC(F)(F)F)N(Cc1cncnc1)c1ccc(Oc2ccccc2)cc1` under 800 nM?
Result: fulfilled

----------
Molecular target: Metabotropic glutamate receptor 2 (Homo sapiens) (UniProt Q14416)
Assay: Level of potentiation of Metabotropic glutamate receptor 2 was determined by measuring the percentage activation of [35S]GTP-gamma-S, in the presence of 10 uM glutamate
Assay type: functional
ASSAY ENDPOINT: Potentiation (%)
Only the number, expressed in %, is required.

In the examples that follow, each entry is paired with its recorded Potentiation.
CC(C)(C)[Si](C)(C)OCc1cccc(N(Cc2cncnc2)S(=O)(=O)CC(F)(F)F)c1
48
FC(F)(F)Oc1cccc(NCc2cnc3ccccc3c2)c1
40

Shift focus to the following entry.
Problem: Recorded Potentiation for `O=S(=O)(CC(F)(F)F)N(Cc1cncnc1)c1cccc(Oc2ccccc2)c1` , please?
Result: 52
